Target: human TRPV1 receptor (hTRPV1) (Homo sapiens)
Sequence (Q8NER1 whole entry): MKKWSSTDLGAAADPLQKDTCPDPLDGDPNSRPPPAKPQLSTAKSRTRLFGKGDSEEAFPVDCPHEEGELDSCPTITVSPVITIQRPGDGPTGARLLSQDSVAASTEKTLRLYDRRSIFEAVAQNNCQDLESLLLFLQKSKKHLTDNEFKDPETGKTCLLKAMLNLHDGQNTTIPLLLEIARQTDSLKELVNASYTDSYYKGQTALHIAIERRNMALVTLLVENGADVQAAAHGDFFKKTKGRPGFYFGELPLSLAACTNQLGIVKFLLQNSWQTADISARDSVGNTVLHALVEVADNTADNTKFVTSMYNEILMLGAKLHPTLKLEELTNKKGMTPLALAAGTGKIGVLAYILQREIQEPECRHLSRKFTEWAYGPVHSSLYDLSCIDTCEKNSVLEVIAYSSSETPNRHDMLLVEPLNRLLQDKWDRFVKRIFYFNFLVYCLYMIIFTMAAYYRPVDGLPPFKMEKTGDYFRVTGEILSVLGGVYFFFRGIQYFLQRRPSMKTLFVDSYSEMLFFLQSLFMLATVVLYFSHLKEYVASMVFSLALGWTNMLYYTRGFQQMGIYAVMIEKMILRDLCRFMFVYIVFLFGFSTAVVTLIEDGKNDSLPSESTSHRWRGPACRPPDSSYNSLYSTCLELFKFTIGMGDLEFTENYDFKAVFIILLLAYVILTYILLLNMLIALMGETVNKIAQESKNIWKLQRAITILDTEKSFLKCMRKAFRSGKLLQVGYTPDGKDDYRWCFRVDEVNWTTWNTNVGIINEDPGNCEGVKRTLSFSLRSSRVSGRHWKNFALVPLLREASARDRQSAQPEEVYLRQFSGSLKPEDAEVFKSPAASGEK
Test: Capsaicin activation assay (Ca2+ influx, FLIPR)
Details: 0.05 μM capsaicin, 1321N1 cells expressing hTRPV1
Give measured log10 of IC50 for each item. Keep answers brief.
Units before log transform: nM; reported quantity: IC50; transform: log10.

Answered cases to consult:
Look up log10 of IC50 with human TRPV1 receptor (hTRPV1) (Homo sapiens) for this compound: Cc1cc2c(NC(=O)N[C@@H]3C[C@@](C)(CF)Oc4cc(C(F)(F)F)ccc43)cccc2cn1 [Example 129]
1.18

Note, next up: CC1(C)C[C@@H](NC(=O)Nc2cccc3c2C[C@H](O)CC3)c2ccc(F)c(Cl)c2O1 [Example 108]
1.32

Also check O=C(Nc1cccc2ccncc12)N[C@@H]1CC(CF)(CF)Oc2cc(C(F)(F)F)ccc21 [Example 93]
1.51

Same again, this time with CCC1(CC)C[C@@H](NC(=O)Nc2cccc3c2C[C@@H](O)CC3)c2ccc(Cl)cc2O1 [Example 76]
0.95

Another compound to check: CC1(C)C[C@@H](NC(=O)Nc2cccc3c2C[C@@H](O)CC3)c2ccc(F)c(F)c2O1 [Example 114]
1.18

Please give log10 of IC50 for each item listed below.
1. Cn1ncc2c(NC(=O)N[C@@H]3CC(C)(C)Oc4ccc(F)cc43)cccc21 [Example 1]
2. CCC1(CC)C[C@@H](NC(=O)Nc2cccc3c2cnn3C)c2cccc(C(F)(F)F)c2O1 [Example 77]
3. CCC1(CC)C[C@@H](NC(=O)Nc2cccc3c2cnn3C)c2ccc(Cl)cc2O1 [Example 78]

1. 2.36
2. 1.57
3. 1.11
